# Target desc: T1, mouse Ang2 (construct not stated) (mouse, UniProt O35608 19-496, limits assumed)
# T1 construct: also called mAng2
# T1 sequence (looked up): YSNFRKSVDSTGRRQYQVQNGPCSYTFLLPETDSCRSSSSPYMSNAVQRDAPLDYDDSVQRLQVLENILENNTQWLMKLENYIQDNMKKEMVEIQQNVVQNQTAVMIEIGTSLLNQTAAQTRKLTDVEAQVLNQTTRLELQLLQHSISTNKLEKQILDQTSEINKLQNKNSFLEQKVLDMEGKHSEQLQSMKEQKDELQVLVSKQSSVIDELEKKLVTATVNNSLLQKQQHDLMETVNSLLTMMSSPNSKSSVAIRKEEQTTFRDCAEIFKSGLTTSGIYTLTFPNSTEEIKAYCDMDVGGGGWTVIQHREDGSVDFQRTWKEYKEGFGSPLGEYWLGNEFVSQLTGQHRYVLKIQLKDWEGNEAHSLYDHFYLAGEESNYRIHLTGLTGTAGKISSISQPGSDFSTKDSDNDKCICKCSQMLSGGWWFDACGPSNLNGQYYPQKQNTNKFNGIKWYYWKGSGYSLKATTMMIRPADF
# Assay name: SPR Biacore T200, antibody captured on protein A chip, Ang2 as analyte, 1:1 model
Test readout: pKd
When answering, recall that pKd equals minus log10 of the concentration in mol/L, and write that number alone.

Some binders with known pKd results, for comparison:
No. 3 anti-Ang2 antibody (IgG) (antibody, V domains shown, IgG form: VH cloned into Invivogen pfusess-hchg1 (heavy chain constant region), VL into Invivogen pfuse2ss-hclk (light chain constant region); Expressed in Expi293F, purified on Protein A; also called 1D10) VH: QMQLVQSGGGLVQPGRSLKLSCAASGFSFDDYAMHWVRQAPGKGLEWVATIKDDGSQTYYVDSVKGRFTISRDNAKSSLFLQMNSLRAEDTAVYYCTTEGLMNGLHFDMWGQGTMVTVSS VL: LVLTQPPSVSGAPGQGVTISCTGSSSNIGAGYDVHWYQQFPGTAPKLLISGNNNRPSGLPDRFSGSKSGTSASLAITGLQAEDEADYYCQSYDSRLGVVFGGGTKLTVLG: 9.27
No. 41 anti-Ang2 antibody (IgG) (antibody, V domains shown, IgG form: VH cloned into Invivogen pfusess-hchg1, VL into Invivogen pfuse2ss-hclk; also called 2B2) VH: QVQLVESGGGLVQPGGSLRLSCEASGFAFGRYEMNWVRQAPGKGLEWIAYIDTGGGAKVYADSVKGRFTISRDDSKNSLYLQMNSLRAEDTAVYYCTTEGLMNGLHFDMWGQGTMITVSS VL: DIQMTQSPSTLSASVGDRVAITCRASQAISTWLAWYQQKPGKAPKLLIYTASTLESGVPSRFSGSGSGTDFTLTINSLQPDDFATYYCQQLNSYPYTFGGGTKVEIKR: 9.48
No. 8 anti-Ang2 antibody (IgG) (antibody, V domains shown, IgG form: VH cloned into Invivogen pfusess-hchg1, VL into Invivogen pfuse2ss-hclk; also called 3A10) VH: QVQLVESGGGLVKPGGSLRLSCAASGFTFSSYSMNWVRQAPGKGLEWVSSISASDGATYYADSVRGRFTISRDNSRSTLYLQMNSLRAEDTAVYYCAKILAGYSGPMGGMDVWGQGTTVTVSS VL: DIQMTQSPSSLSASVGDRVTITCRASRDISNYLAWYQQKPGKAPKSLIYGASNLQSGVSSQFSGSGSGTDFTLTINSLQPEDSATYYCQQYYSYPLTFGGGTKVDIKR: 9.33

Qu. Query (binder): No. 46 anti-Ang2 antibody (IgG) (antibody, V domains shown, IgG form: VH cloned into Invivogen pfusess-hchg1, VL into Invivogen pfuse2ss-hclk; also called 3C6) VH: QVQLVESGGGLVQPGRSLRLSCAASGFTFDDCAMHWVRQAPGKGLEWVSGISGNSKNVAYADSVKGRFSISRDDAKNSLYLQMNSLRAEDTAVYYCARDPAYSQFDYWGQGTLITVSS VL: QSALTQPPSLSATPGQRVTISCSGSSSNVGGYPVNWYQQVPGAAPKLLMYTDYKRPSGVPDRFFGSKSGTSASLAISGLQSEDEADYYCATWDDNLNGYVFGTGTKVTVLG ; field requested: pKd
Ans. 9.71

Just for reference, patent US20220204603A1 is where these values come from.
